The next entries give measured AC50 for Cytochrome P450 2D6 (Homo sapiens).

[
  {
    "compound": "COC(=O)[C@@]1(Cc2ccccc2)[C@H]2c3cc(C(=O)N(C)C)n(Cc4cc(C)n(C)n4)c3C[C@H]2CN1C(=O)c1ccccc1",
    "assay_target": "Cytochrome P450 2D6 (Homo sapiens)",
    "measured_quantity": "AC50",
    "observed": "39.8 µM (inconclusive)"
  },
  {
    "compound": "Cc1cnc(CNc2ncncc2-c2ccccc2CN(C)C)cn1",
    "assay_target": "Cytochrome P450 2D6 (Homo sapiens)",
    "measured_quantity": "AC50",
    "observed": "39.8 µM (inconclusive)"
  },
  {
    "compound": "Fc1ccc(N=C(S)NCCc2ccccc2)c(F)c1F",
    "assay_target": "Cytochrome P450 2D6 (Homo sapiens)",
    "measured_quantity": "AC50",
    "observed": "15.8 µM (inconclusive)"
  },
  {
    "compound": "C=C(CC1(C(C)NP(=O)(c2ccccc2)c2ccccc2)CC1)c1ccccc1 (stereo not given)",
    "assay_target": "Cytochrome P450 2D6 (Homo sapiens)",
    "measured_quantity": "AC50",
    "observed": "39.8 µM (inconclusive)"
  },
  {
    "compound": "COc1ncc2nc(-c3ccc(Cl)cc3)c(=O)n(Cc3cccs3)c2n1",
    "assay_target": "Cytochrome P450 2D6 (Homo sapiens)",
    "measured_quantity": "AC50",
    "observed": "2.51 µM (inconclusive)"
  },
  {
    "compound": "O=C(CSc1nnc(-c2cccc(S(=O)(=O)N3CCOCC3)c2)n1C1CCCCCC1)NCc1ccccc1",
    "assay_target": "Cytochrome P450 2D6 (Homo sapiens)",
    "measured_quantity": "AC50",
    "observed": "7.94 µM (inconclusive)"
  }
]

Returns the measured AC50 for the input compound. Input: "Cc1cnc(CNc2cc(-c3ccccc3CN(C)C)ncn2)cn1"
12.6 µM (inconclusive)

Then this compound: "CCOC(=O)c1c(-c2ccccc2)csc1NC(=O)c1cccc(N2C(=O)CCC2=O)c1"
0.0112 µM (inconclusive)

Record: "C#CCn1c(S(=O)(=O)Cc2ccc(OC)cc2)nc(-c2ccccc2)c1-c1ccccc1"
14.1 µM (inconclusive)

Please give the result for "O=C(c1ccncc1)N1CCC[C@@]2(CCN(Cc3nccs3)C2)C1" too.
20 µM (inconclusive)
